Tested on: SEM cells
Experiment Summary: AUC of viability dose-response curve (% viability x log10 dose units); higher = less sensitive
Test Conditions: HPLM + 10% dialyzed FBS; 48 h
AUC of viability dose-response curve strictly under 400 means criterion met; at 400 or over means criterion not met.

Problem: Take the molecule c1nc2c(NC3CCCCC3)nc(Nc3ccc(N4CCOCC4)cc3)nc2[nH]1 and say whether its AUC of viability dose-response curve is less than 400.
Solution: criterion met

Problem: Take the molecule CNCC[C@H](Oc1cccc2ccccc12)c1cccs1 and say whether its AUC of viability dose-response curve is less than 400.
Solution: criterion not met

Problem: Take the molecule O=P(O)(O)C(O)(Cn1ccnc1)P(=O)(O)O and say whether its AUC of viability dose-response curve is less than 400.
Solution: criterion not met

Problem: Take the molecule Cc1ccc2c(=O)c3cccc(CC(=O)O)c3oc2c1C and say whether its AUC of viability dose-response curve is less than 400.
Solution: criterion not met

Problem: Take the molecule CCOC(=O)C(C)OC1=CC=CC2=C1\C=C/N(CC(=O)NC3=CC=C4OCCOC4=C3)C2=O (configuration not stated) and say whether its AUC of viability dose-response curve is less than 400.
Solution: criterion not met
